Reference source for all entries: ChEMBL document CHEMBL1201862

tested on: SF-295; experiment: NCI tumour cell line growth inhibition, 48 h
Active and inactive are the calls of the source. Rule as the data show it: active = GI50 up to about 1.1 µM and inactive = higher.
property: GI50

Record O=C1CC2(CCC3=C(O2)c2ccccc2NC(=O)C3)C(=O)c2ccccc2N1 (configuration not stated) ; system SF-295; GI50 = > 100 µM (inactive)

Record for "CN1CCN(CC(=O)Nc2cccc3ccccc23)CC1" under target or system SF-295: GI50 reported as > 100 µM (inactive)

// assay SF-295, entry C=C1OC2OC(C)C(NC(=O)OCC(Cl)(Cl)Cl)C(OC(C)=O)C2O1 (configuration not stated) , GI50 value = > 100 µM (inactive)

Observed GI50 on SF-295, entry "CCOC(=O)NC" , equals > 100 µM (inactive)

The compound "NC(=O)c1sc2nc3ccccc3n2c1N" on SF-295: GI50 was 23.8 µM (inactive)

Considering "CCCNC1=C(C)C(=O)C2=C(C1=O)[C@H](COC(N)=O)[C@]1(OC)[C@@H]3N[C@@H]3CN21" , its GI50 with SF-295 was recorded as 2.39 µM (inactive)

Tested on SF-295: "CN(C)CCNC(=O)c1cccc2nc3cc(Cl)ccc3nc12" . Observed GI50: 3.25 µM (inactive)

====

system: HL-60; experiment: NCI tumour cell line growth inhibition, 48 h
Active and inactive are the calls of the source. Cut-off read from the data, not from the text of the source: active = GI50 up to about 1.1 µM and inactive = higher.
Select the correct class. Options are 1 for active, -1 for inactive and nothing else.

Some solved cases for reference:
| compound | answer-label |
| --- | --- |
| Cc1cc2c(cc1Cl)SC(NNC(=O)c1ccco1)=NS2(=O)=O | -1 |
| CCO[C@@H]1CCC([S+]([O-])c2ccc(C)cc2)=CO1 (some centres undefined) | -1 |

Any idea what this test logged for "CN(C)CCCNc1ccc2ncn3c4ccc(O)cc4c(=O)c1c23" ?
1

So what was the verdict on "CCOC(=O)c1c(N/C(S)=N/c2ccccc2)sc2c1CCOC2" in this test?
-1
